# assay_method_text: in vitro
# condition_set: rat, gh3-tre-luc cells, AC50 (uM) modified / 1000
Where a name gives a salt, the structure may show the parent alone.
measured_quantity: CC50 at 24 h

// worked examples, CC50 at 24 h included
CCCCCCCCCCCCCCCCCC[N+](C)(C)C | 13.4 µM
CCc1cccc(N(C)C(N)=Nc2cccc3ccccc23)c1 [Aptiganel hydrochloride] | 19.6 µM
CCOC(=O)COC(=O)c1ccccc1C(=O)OCC [Ethyl phthalyl ethyl glycolate] | > 90 µM
Cc1ccc(S(=O)(=O)N[C@@H](CCCCN)C(=O)CCl)cc1 | 15 µM
O=C(Cl)c1ccccc1 [Benzoyl chloride] | > 90 µM
CC(C)(O)CCc1ccccc1 [2-Methyl-4-phenylbutan-2-ol] | > 90 µM

CC50 at 24 h reading for C/C=C(C)/C=C/C=C(C)C [2,6-Dimethyl-2,4,6-octatriene] : > 90 µM

CC50 at 24 h reading for CCCN(CCc1cccs1)[C@H]1CCc2c(O)cccc2C1 [Rotigotine] : 40.9 µM

CC50 at 24 h reading for COc1ccc(C(=O)Nc2ccccc2CCC2CCCCN2C)cc1 (centres unmarked) [Encainide hydrochloride] : > 50 µM

CC50 at 24 h reading for C/C=C/C=N/NC(=O)c1ccncc1 [Crotoniazide] : > 50 µM

CC50 at 24 h reading for O=C1CN=C(c2ccccc2)c2cc([N+](=O)[O-])ccc2N1 [Nitrazepam] : > 50 µM

CC50 at 24 h reading for CC(=O)Nc1ccc(N)cc1 [4-Aminoacetanilide] : > 90 µM

CC50 at 24 h reading for CCN1CCCC1CNC(=O)c1cc(S(=O)(=O)CC)c(N)cc1OC (centres unmarked) [Amisulpride] : > 50 µM

CC50 at 24 h reading for CC(=O)C1C(=O)C=C(C)OC1=O (centres unmarked) [Dehydroacetic acid] : > 90 µM

====

# System: GH3-TRE-Luc cell line
# condition_set: read-out: AC50 (uM) modified / 1000; Tox21_110001=Tox21_110255; viability, 1 nM T3 present, 24 h
Counter-ions that a name gives are not always drawn.
measured_quantity: CC50 (µM)
# value in µM; strip the unit string

CC50 reading for O=C(c1ccc(OCCN2CCCCC2)cc1)c1c(-c2ccc(O)cc2)sc2cc(O)ccc12 [Raloxifene hydrochloride] : 5.6

====

# assay_method_text: in vitro
# condition_set: rat, gh3-tre-luc cells, AC50 (uM) modified / 1000, Tox21_110001=Tox21_301429; viability, 1 nM T3 present, 24 h
measured_quantity: CC50 at 24 h
Could you kindly put the unit after your number?

CC50 at 24 h reading for `ClC1=C(Cl)[C@]2(Cl)[C@H]3[C@H]([C@H]4C=C[C@@H]3C4)[C@@]1(Cl)C2(Cl)Cl` : 66.4 µM

====

# assay_method_text: in vitro
# condition_set: rat, gh3-tre-luc cells, AC50 (uM) modified / 1000, Tox21_110001=Tox21_201427; viability, 1 nM T3 present, 24 h
measured_quantity: CC50 at 24 h

CC50 at 24 h reading for BrCCBr [1,2-Dibromoethane] : > 90 µM

====

# assay_method_text: in vitro
# condition_set: rat, gh3-tre-luc cells, AC50 (uM) modified / 1000, Tox21_110001=Tox21_200821; viability, 1 nM T3 present, 24 h
measured_quantity: CC50 at 24 h

CC50 at 24 h reading for O=[N+]([O-])c1ccccc1CCl [2-Nitrobenzyl chloride] : > 90 µM

====

# assay_method_text: in vitro
# condition_set: rat, gh3-tre-luc cells, AC50 (uM) modified / 1000, Tox21_110001=Tox21_202291; viability, 1 nM T3 present, 24 h
measured_quantity: CC50 at 24 h

CC50 at 24 h reading for `O=[N+]([O-])c1ccc(Cl)cc1` : > 90 µM

====

Listed next: entries and their corresponding CC50 at 24 h.
# assay_method_text: in vitro
# condition_set: rat, gh3-tre-luc cells, AC50 (uM) modified / 1000

// worked examples, CC50 at 24 h included
CNc1ccccc1 [N-Methylaniline] | > 90 µM
CO[Si](CCCNCCN)(OC)OC | > 90 µM
CCCC1CCOC(C)S1 (centres unmarked) [2-Methyl-4-propyl-1,3-oxathiane] | > 90 µM
CC(=O)O[C@H]1CC[C@H]2[C@@H]3CCC4=CC(=O)CCC4=C3C=C[C@]12C [Trenbolone acetate] | > 50 µM

CC50 at 24 h reading for CCOC(=O)C1=C(C)NC(C)=C(C(=O)OCC)C1c1ccccc1/C=C/C(=O)OC(C)(C)C [Lacidipine] : 11.2 µM

====

# assay_method_text: in vitro
# condition_set: rat, gh3-tre-luc cells, AC50 (uM) modified / 1000
Listed next: entries and their corresponding CC50 at 24 h.

CC(C)(C)c1n[nH]c(=S)n(N)c1=O | > 90 µM

CC50 at 24 h reading for `C1CSCCS1` : > 90 µM

CC50 at 24 h reading for CCCC[n+]1ccccc1 [1-Butylpyridinium hexafluorophosphate] : > 90 µM

====

# study_system: human RXRα (Homo sapiens)
# Construct: host or cells: GeneBLAzer UAS-bla HEK 293T
# Sequence (P19793 227-458 limits assumed): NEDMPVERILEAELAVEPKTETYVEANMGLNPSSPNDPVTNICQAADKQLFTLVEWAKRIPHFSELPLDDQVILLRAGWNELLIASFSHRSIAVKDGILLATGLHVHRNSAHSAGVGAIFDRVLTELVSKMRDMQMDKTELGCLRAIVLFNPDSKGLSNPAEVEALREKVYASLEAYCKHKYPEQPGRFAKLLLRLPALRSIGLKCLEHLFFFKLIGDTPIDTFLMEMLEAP
# assay_method_text: RXRa-bla-Ag mammalian one-hybrid beta-lactamase assay (TOX21_TR_RXR_BLA_Agonist_Followup_ratio, aeid 2253)
# Assay type: cell-based
# condition_set: read-out: EMax (% of Control) tr-followup-rxr-bla-agonist-1
Classify by measured Emax: t if it is equal to or exceeds 20%, f if it is smaller.

Previously resolved entries follow.
CNC(=O)ON=C(CSC)C(C)(C)C [Thiofanox] | f
N[C@@H](Cc1cc(I)c(Oc2cc(I)c(O)c(I)c2)c(I)c1)C(=O)O [Levothyroxine, reference compound] | t

Q: State whether the measured Emax reaches 20%, counting equality as reaching it, for Cc1occc(=O)c1O [Maltol]
A: f

Q: State whether the measured Emax reaches 20%, counting equality as reaching it, for C=C(NC(=O)C(=C)NC(=O)c1csc(C2=N[C@@H]3c4csc(n4)[C@H]4NC(=O)c5csc(n5)[C@H]([C@](C)(O)[C@@H](C)O)NC(=O)[C@H]5CSC(=N5)/C(=C/C)NC(=O)[C@H]([C@@H](C)O)NC(=O)c5csc(n5)[C@]3(CC2)NC(=O)[C@H](C)NC(=O)C(=C)NC(=O)[C@H](C)NC(=O)[C@H]([C@@H](C)CC)N[C@@H]2C=Cc3c([C@H](C)O)cc(nc3[C@H]2O)C(=O)O[C@@H]4C)n1)C(N)=O [Thiostrepton]
A: f

Q: State whether the measured Emax reaches 20%, counting equality as reaching it, for Nc1ccc(S(=O)(=O)Nc2nccs2)cc1 [Sulfathiazole]
A: t

Q: State whether the measured Emax reaches 20%, counting equality as reaching it, for c1csc(-c2ccc(-c3cccs3)s2)c1 [alpha-Terthiophene]
A: t

Q: State whether the measured Emax reaches 20%, counting equality as reaching it, for CN(C)c1ccc(N=O)cc1 [N,N-dimethyl-4-nitrosoaniline]
A: f

Q: State whether the measured Emax reaches 20%, counting equality as reaching it, for C[C@H](CCC(=O)NCC(=O)O)[C@H]1CC[C@H]2[C@@H]3[C@H](O)C[C@@H]4C[C@H](O)CC[C@]4(C)[C@H]3C[C@H](O)[C@]12C [glycocholic acid]
A: f

====

# assay_method_text: in vitro
# condition_set: rat, gh3-tre-luc cells, AC50 (uM) modified / 1000, Tox21_110001=Tox21_201617; viability, 1 nM T3 present, 24 h
measured_quantity: CC50 at 24 h

CC50 at 24 h reading for COP(=O)(OC)OC=C(Cl)Cl [Dichlorvos] : > 90 µM

====

# assay_method_text: in vitro
# condition_set: rat, gh3-tre-luc cells, AC50 (uM) modified / 1000
Counter-ions that a name gives are not always drawn.
measured_quantity: CC50 at 24 h

// worked examples, CC50 at 24 h included
C/C(=N\O)c1ccc(OCC(=O)N2CCCCC2)cc1 [Pifoxime] | > 50 µM
NCCCN1CCN(CCCN)CC1 [1,4-bis(3-Aminopropyl)piperazine] | > 90 µM
CCCCCC[n+]1ccccc1 [1-Hexylpyridinium bromide] | > 90 µM
COc1ccc2cc([C@H](C)CO)ccc2c1 [Naproxol] | > 50 µM
CO[C@]12CC[C@@]3(C[C@@H]1[C@](C)(O)C(C)(C)C)[C@H]1Cc4ccc(O)c5c4[C@@]3(CCN1CC1CC1)[C@H]2O5 [Buprenorphine hydrochloride] | 23.1 µM
C[C@H](CSC(=O)c1ccccc1)C(=O)N1C[C@@H](Sc2ccccc2)C[C@H]1C(=O)O [Zofenopril] | > 50 µM

CC50 at 24 h reading for CN(C)Cc1ccccc1 [N,N-Dimethylbenzylamine] : > 50 µM

CC50 at 24 h reading for CCOC(=S)SSC(=S)OCC [Bis(ethylxanthogen)] : > 90 µM

CC50 at 24 h reading for O=C(O)Cc1cccc2ccccc12 [Potassium 1-naphthaleneacetate] : > 90 µM
